- TARGET SYSTEM: SARS-CoV-2 PLpro (Severe acute respiratory syndrome coronavirus 2, UniProt P0DTD1)
Can you tell me IC50 for the items I'm about to list?

Exercise: Query IC50 for CCn1ccc(-c2cc(-c3cnn(C)c3)cc([C@@H](C)NC(=O)c3ccccc3CCC(=O)NNC(=O)/C=C/C(=O)NC3CC(F)(F)C3)c2)n1 [Example 14]
Solution: < 1 µM

Exercise: Query IC50 for CCn1ccc(-c2cc(-c3cnn(C)c3)cc([C@@H](C)NC(=O)c3ccccc3CCC(=O)NNC(=O)/C=C/C(=O)NC3CC3)c2)n1 [Example 13]
Solution: < 1 µM

Exercise: Query IC50 for C=CC(=O)NNC(=O)CCc1ccccc1C(=O)N[C@H](C)c1cc(-c2cnn(C)c2)cc(-c2ccn(CC)n2)c1 [Example 4]
Solution: 1 to 5 µM

Exercise: Query IC50 for C=C(Cl)C(=O)NNC(=O)CCc1ccccc1C(=O)N[C@H](C)c1cc(-c2cnn(C)c2)cc(-c2ccn(CC)n2)c1 [Example 17]
Solution: 1 to 5 µM

Exercise: Query IC50 for C=C(F)C(=O)NNC(=O)CCc1ccccc1C(=O)N[C@H](C)c1cc(-c2cnn(C)c2)cc(-c2ccn(CC)n2)c1 [Example 16]
Solution: > 5 µM

Exercise: Query IC50 for CCn1ccc(-c2cc(-c3cnn(C)c3)cc([C@@H](C)NC(=O)c3ccccc3CCC(=O)NNC(=O)/C=C/C(=O)N3CC(F)C3)c2)n1 [Example 21]
Solution: < 1 µM

Exercise: Query IC50 for CCn1ccc(-c2cc(-c3cnn(C)c3)cc([C@@H](C)NC(=O)c3ccccc3CCC(=O)NNC(=O)/C=C/C(=O)NC34CC(C3)C4)c2)n1 [Example 20]
Solution: < 1 µM

Exercise: Query IC50 for CCn1ccc(-c2cc(-c3cnn(C)c3)cc([C@@H](C)NC(=O)c3ccccc3CCC(=O)NNC(=O)/C=C/C(=O)N3CCC3)c2)n1 [Example 22]
Solution: < 1 µM

Exercise: Query IC50 for C=CS(=O)(=O)NNC(=O)CCc1ccccc1C(=O)N[C@H](C)c1cc(-c2cnn(C)c2)cc(-c2ccn(CC)n2)c1 [Example 6]
Solution: < 1 µM

Exercise: Query IC50 for CCn1ccc(-c2cc(-c3cnn(C)c3)cc([C@@H](C)NC(=O)c3ccccc3CCC(=O)NNC(=O)/C=C/C(=O)N(C)C)c2)n1 [Example 12]
Solution: < 1 µM

Exercise: Query IC50 for CCn1ccc(-c2cc(-c3cnn(C)c3)cc([C@@H](C)NC(=O)c3ccccc3CCC(=O)NNC(=O)C(Cl)Cl)c2)n1 [Example 3]
Solution: 1 to 5 µM

====

- ASSAY EXPLANATION: Cytotoxicity assay in Vero E6 cells (neutral red uptake)
- Format: cell-based
- RUN PARAMETERS: African green monkey, 2 days at 37° C.
Can you tell me CC50 at 2 days for the items I'm about to list?

Exercise: Query CC50 at 2 days for C=CC(=O)NCC(=O)NCc1ccccc1C(=O)N[C@H](C)c1cc(-c2cnn(C)c2)cc(-c2ccn(C)n2)c1
Solution: > 500 µM

Exercise: Query CC50 at 2 days for CCn1ccc(-c2cc(-c3cnn(C)c3)cc([C@@H](C)NC(=O)c3ccccc3CNC(=O)CNC(=O)/C=C/C(=O)N3CC(F)(F)C3)c2)n1
Solution: > 500 µM

Exercise: Query CC50 at 2 days for C[C@@H](NC(=O)c1ccccc1CNC(=O)CNC(=O)CC#N)c1cc(-c2cnn(C)c2)cc(-c2ccn(C)n2)c1
Solution: > 500 µM

====

- ASSAY EXPLANATION: Cytotoxicity assay in Vero E6 cells (neutral red uptake)
- Assay type: cell-based
- RUN PARAMETERS: African green monkey, 2 days at 37° C.
- Description: Cytotoxicity Assay in Vero E6 Cells Briefly, 80,000 cells/ml of the tested cell lines were dispensed into 96-well cell culture plates at 100 μl per well. Twenty-four hours later, the growth medium was removed and washed with 150 μl of PBS buffer. […] The amount of neutral red taken up was determined by measuring the absorbance at 540 nm using a Multiskan FC Microplate Photometer (Thermo Fisher Scientific). The CC50 values were calculated from best-fit dose-response curves with variable slope in Prism 8.
MEASURED METRIC: CC50 at 2 days

Exercise: Query CC50 at 2 days for CCn1ccc(-c2cc(-c3cnn(C)c3)cc([C@@H](C)NC(=O)c3ccccc3CCC(=O)NNC(=O)/C=C/C(=O)NC3CC(F)(F)C3)c2)n1
Solution: > 250 µM

Exercise: Query CC50 at 2 days for CCn1ccc(-c2cc(-c3cnn(C)c3)cc(C3(NC(=O)c4ccccc4CNC(=O)CNC(=O)/C=C/C(=O)N4CC(F)(F)C4)CC3)c2)n1
Solution: > 500 µM

Exercise: Query CC50 at 2 days for CCOC(=O)/C=C/C(=O)NCC(=O)NCc1ccccc1C(=O)NC1(c2cc(-c3cnn(C)c3)cc(-c3ccn(CC)n3)c2)CC1
Solution: > 500 µM

Exercise: Query CC50 at 2 days for CCn1ccc(-c2cc(-c3cnn(C)c3)cc([C@@H](C)NC(=O)c3ccccc3CCC(=O)NNC(=O)/C=C/C(=O)N3CC(F)C3)c2)n1
Solution: > 500 µM

Exercise: Query CC50 at 2 days for C=CS(=O)(=O)NCC(=O)NCc1ccccc1C(=O)N[C@H](C)c1cc(-c2cnn(C)c2)cc(-c2ccn(C)n2)c1
Solution: > 250 µM

Exercise: Query CC50 at 2 days for CCn1ccc(-c2cc(-c3cnn(C)c3)cc([C@@H](C)NC(=O)c3ccccc3CCC(=O)NNS(=O)(=O)C(Cl)Cl)c2)n1
Solution: > 250 µM

====

- ASSAY EXPLANATION: Cytotoxicity assay in Vero E6 cells (neutral red uptake)
- Assay type: cell-based
- RUN PARAMETERS: African green monkey, 2 days at 37° C.
Can you tell me CC50 at 2 days for the items I'm about to list?

Exercise: Query CC50 at 2 days for CCn1ccc(-c2cc(-c3cnn(C)c3)cc([C@@H](C)NC(=O)c3ccccc3CCC(=O)NNC(=O)/C=C/C(=O)N3CC(C)(C)C3)c2)n1
Solution: > 250 µM

Exercise: Query CC50 at 2 days for CCn1ccc(-c2cc(-c3cnn(C)c3)cc([C@@H](C)NC(=O)c3ccccc3CCC(=O)NNC(=O)C34CC(C3)C4)c2)n1
Solution: > 250 µM

Exercise: Query CC50 at 2 days for C=CS(=O)(=O)NNC(=O)CCc1ccccc1C(=O)N[C@H](C)c1cc(-c2cnn(C)c2)cc(-c2ccn(CC)n2)c1
Solution: 31 µM

====

A short record of IC50 observed with SARS-CoV-2 PLpro (Severe acute respiratory syndrome coronavirus 2, UniProt P0DTD1) follows.

Exercise: Query IC50 for C=CS(=O)(=O)NCC(=O)NCc1ccccc1C(=O)N[C@H](C)c1cc(-c2cnn(C)c2)cc(-c2ccn(C)n2)c1
Solution: < 1000 nM

Exercise: Query IC50 for CCn1ccc(-c2cc(-c3cnn(C)c3)cc([C@@H](C)NC(=O)c3ccccc3CCC(=O)NNS(=O)(=O)C(Cl)Cl)c2)n1
Solution: > 5000 nM

Exercise: Query IC50 for CCn1ccc(-c2cc(-c3cnn(C)c3)cc([C@@H](C)NC(=O)c3ccccc3CNC(=O)CNC(=O)/C=C/C(=O)N3CC(F)(F)C3)c2)n1
Solution: < 1000 nM
